SYSTEM: recombinant GST fusion MALT1 (human MALT1) (Homo sapiens (Human))
Sequence (Q9UDY8 whole entry, the tested form may be a part): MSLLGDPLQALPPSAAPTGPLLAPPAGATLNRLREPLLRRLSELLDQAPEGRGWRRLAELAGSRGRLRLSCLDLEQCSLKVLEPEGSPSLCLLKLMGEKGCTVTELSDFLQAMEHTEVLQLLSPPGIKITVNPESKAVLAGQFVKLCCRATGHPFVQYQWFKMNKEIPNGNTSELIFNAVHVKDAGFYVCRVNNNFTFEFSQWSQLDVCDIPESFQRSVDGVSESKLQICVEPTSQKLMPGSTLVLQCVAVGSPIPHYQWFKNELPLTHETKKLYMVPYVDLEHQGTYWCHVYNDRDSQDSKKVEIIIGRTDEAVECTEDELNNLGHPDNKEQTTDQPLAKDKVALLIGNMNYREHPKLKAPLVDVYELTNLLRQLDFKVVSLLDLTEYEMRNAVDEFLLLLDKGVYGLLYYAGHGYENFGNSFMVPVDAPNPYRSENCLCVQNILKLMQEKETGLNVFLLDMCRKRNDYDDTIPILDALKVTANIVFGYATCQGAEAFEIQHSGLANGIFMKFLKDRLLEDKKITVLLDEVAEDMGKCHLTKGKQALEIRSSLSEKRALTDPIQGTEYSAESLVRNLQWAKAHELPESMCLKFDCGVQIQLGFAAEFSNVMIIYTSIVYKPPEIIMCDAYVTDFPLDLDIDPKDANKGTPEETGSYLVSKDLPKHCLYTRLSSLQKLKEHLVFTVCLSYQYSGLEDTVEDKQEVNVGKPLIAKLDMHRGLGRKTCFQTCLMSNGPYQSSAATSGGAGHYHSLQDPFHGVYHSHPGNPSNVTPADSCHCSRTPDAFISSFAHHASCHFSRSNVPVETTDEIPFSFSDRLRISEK
PROCEDURE DETAILS: Evaluation of inhibition of protease activity of MALT1 (cleavage of fluorescent peptide substrate Ac-LRSR-AMC)
RECORDED CONDITIONS: substrate Ac-LRSR-AMC 20 μmol/L, 30° C. for 80 minutes
pIC50: −log10 of the molar value. Structures can show the parent of a compound that is named as a salt.
MEASURED PARAMETER: pIC50

COMPOUND | pIC50
N#Cc1ccc(-c2cc(CN/C(N)=N/S(=O)(=O)c3ccccc3)cnc2-c2ccc(Cl)cc2)cc1 | 5.82
N/C(=N\S(=O)(=O)c1ccccc1)NCc1cnc(-c2ccc(Cl)cc2)c(-c2ccc(OC(F)(F)F)cc2)c1 | 6.13
NC(=O)/N=C(\N)NCc1cnc(-c2ccc(Cl)cc2)c(-c2ccc(Cl)cc2)c1 [Compound of Example 41, Hydrochloride] | 6.17
N/C(=N\C(=O)c1ccc(C(F)(F)F)cc1)NCc1cnc(-c2ccc(Cl)cc2)c(-c2ccc(Cl)cc2)c1 | 6.09
N/C(=N\C(=O)c1ccc(Cl)cc1)NCc1cnc(-c2ccc(Cl)cc2)c(-c2ccc(Cl)cc2)c1 | 5.82
N/C(=N\S(=O)(=O)c1ccccc1)NCc1cnc(-c2ccccc2)c(-c2ccc(C(F)(F)F)cc2)c1 | 5.98

====

SYSTEM: recombinant GST fusion MALT1 (human MALT1) (Homo sapiens (Human))
PROCEDURE DETAILS: Evaluation of inhibition of protease activity of MALT1 (cleavage of fluorescent peptide substrate Ac-LRSR-AMC)
RECORDED CONDITIONS: substrate Ac-LRSR-AMC 20 μmol/L, 30° C. for 80 minutes
Where a name gives a salt, the structure may show the parent alone.
MEASURED PARAMETER: IC50 (nM)

Known IC50 results, listed for orientation:
COMPOUND | SYSTEM | READOUT NUMBER
Cc1ccc(-c2ncc(CN/C(N)=N/S(=O)(=O)c3ccccc3)cc2-c2ccc(Cl)cc2)cc1F [Compound of Example 12] | recombinant GST fusion MALT1 (human MALT1) (Homo sapiens (Human)) | 338
N#Cc1ccc(C(=O)/N=C(\N)NCc2cnc(-c3ccc(Cl)cc3)c(-c3ccc(Cl)cc3)c2)cc1 [Compound of Example 62] | recombinant GST fusion MALT1 (human MALT1) (Homo sapiens (Human)) | 471
N#Cc1ccc(S(=O)(=O)/N=C(\N)NCc2cnc(-c3ccc(Cl)cc3)c(-c3ccc(Cl)cc3)c2)cn1 [Compound of Example 52] | recombinant GST fusion MALT1 (human MALT1) (Homo sapiens (Human)) | 390
N/C(=N\C(=O)CC(F)(F)F)NCc1cnc(-c2ccc(Cl)cc2)c(-c2ccc(Cl)cc2)c1 [Compound of Example 84] | recombinant GST fusion MALT1 (human MALT1) (Homo sapiens (Human)) | 1380
N/C(=N\S(=O)(=O)c1ccccc1)NCc1cnc(-c2ccc(Cl)cc2O)c(-c2ccc(Cl)cc2)c1 [Compound of Example 97] | recombinant GST fusion MALT1 (human MALT1) (Homo sapiens (Human)) | 922

[P] N/C(=N\S(=O)(=O)c1ccccc1)NCc1cnc(-c2ccccc2)c(-c2ccc(Cl)cc2)c1 [Compound of Example 3]
[Q] N/C(=N\S(=O)(=O)c1ccccc1)NCc1cnc(-c2cccc(F)c2)c(-c2ccc(Cl)cc2)c1 [Compound of Example 9]
[R] N/C(=N\S(=O)(=O)c1ccoc1)NCc1cnc(-c2ccc(Cl)cc2)c(-c2ccc(Cl)cc2)c1 [Compound of Example 32]
[S] N/C(=N\S(=O)(=O)c1cccc(Cl)c1)NCc1cnc(-c2ccc(Cl)cc2)c(-c2ccc(Cl)cc2)c1 [Compound of Example 48]
[T] Cc1ccc(-c2ncc(CN/C(N)=N/S(=O)(=O)c3ccccc3)cc2-c2ccc(Cl)cc2)cc1 [Compound of Example 5]
Rank the items in ascending order with respect to IC50. Present the labels in the sequence the task asks for.
T, R, S, P, Q

[a] COc1cccc(S(=O)(=O)/N=C(\N)NCc2cnc(-c3ccc(Cl)cc3)c(-c3ccc(Cl)cc3)c2)c1 [Compound of Example 50]
[b] N/C(=N\S(=O)(=O)c1ccccc1)NCc1cnc(-c2ccc(Cl)cc2)c(-c2ccc(O)cc2)c1 [Compound of Example 94, Hydrochloride]
Quick check, higher IC50 between a and b ? Give the label under which the chosen entry appears.
b

[a] N/C(=N\C(=O)c1ccccc1F)NCc1cnc(-c2ccc(Cl)cc2)c(-c2ccc(Cl)cc2)c1 [Compound of Example 67]
[b] N/C(=N\S(=O)(=O)c1ccccc1)NCc1cnc(-c2ccc(OC(F)(F)F)cc2)c(-c2ccc(Cl)cc2)c1 [Compound of Example 10]
[c] N/C(=N\S(=O)(=O)c1cccc(O)c1)NCc1cnc(-c2ccc(Cl)cc2)c(-c2ccc(Cl)cc2)c1 [Compound of Example 96, Hydrochloride]
Order the items by recorded IC50; the first position goes to the largest value. Present the labels in the sequence the task asks for.
c, a, b

[P] NC(=NS(=O)(=O)c1ccccc1)NCc1ccc(-c2ccc(Cl)cc2)c(-c2ccc(Cl)cc2)n1 [Compound of Example 45, Hydrochloride]
[Q] N/C(=N\S(=O)(=O)c1ccc(F)cc1)NCc1cnc(-c2ccc(Cl)cc2)c(-c2ccc(Cl)cc2)c1 [Compound of Example 28]
Lower IC50: P or Q ? Give the label under which the chosen entry appears.
P
